Protein target, amino acids: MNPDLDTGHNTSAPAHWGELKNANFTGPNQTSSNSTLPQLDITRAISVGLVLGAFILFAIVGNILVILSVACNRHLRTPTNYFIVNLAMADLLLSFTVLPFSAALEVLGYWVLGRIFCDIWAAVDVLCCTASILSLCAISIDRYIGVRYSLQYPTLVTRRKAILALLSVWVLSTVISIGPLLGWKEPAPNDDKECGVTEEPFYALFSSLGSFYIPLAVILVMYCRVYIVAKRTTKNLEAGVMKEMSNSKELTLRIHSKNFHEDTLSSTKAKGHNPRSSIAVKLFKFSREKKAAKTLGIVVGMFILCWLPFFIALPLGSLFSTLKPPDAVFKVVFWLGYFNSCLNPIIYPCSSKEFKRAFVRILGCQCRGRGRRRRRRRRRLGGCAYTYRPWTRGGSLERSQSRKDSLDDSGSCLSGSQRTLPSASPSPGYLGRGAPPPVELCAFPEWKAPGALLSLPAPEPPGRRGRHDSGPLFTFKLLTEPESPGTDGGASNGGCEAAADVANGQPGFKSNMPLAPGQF
The following compounds are listed with their measured Ki values.

Memo: `COCC1=C(C(=O)OC)[C@H](c2ccc(F)c(F)c2)N(C(=O)NCCC[n+]2ccc(-c3ccccn3)cc2)C(=O)N1` , reported Ki: > 2000 nM

Memo: `O=C(O)CCNC(=O)N1C(=O)NC2=C(C(=O)OC2)[C@@H]1c1ccc(F)c(F)c1` , reported Ki: > 2000 nM

Continuing:
Memo: COC(=O)C1=C(c2ccc(F)c(F)c2)N(C(=O)NCCCN2CCC(c3ccccn3)CC2)C(=O)NC1C(=O)O (single isomer, unassigned; (+)) , reported Ki: > 2000 nM
